Just for reference, the CheMixHub drug solubility set is where these values come from.

# solubility (g/100 g solution) listing for each entry below
- MEASUREMENT_NOTES: xn = mol fraction of the nth substance listed, in the solute-free solvent
- DETAILS: 298.15 K; x2 = 0.06974
OUTCOME_MEASURE: solubility (g/100 g solution)

c1ccc2[nH]c(-c3cscn3)nc2c1 + CCCO + O
0.0263
Cc1[nH]c(=O)c(C#N)cc1-c1ccncc1 + CC(C)O + O
0.0033
CN1CCN(C2=Nc3cc(Cl)ccc3Nc3ccccc32)CC1 + CC(C)O + O
0.06
c1ccc2[nH]c(-c3cscn3)nc2c1 + CC(C)O + O
0.015
Nc1nccnc1Cl + CC(C)O + O
0.201
Nc1cccc(S(=O)(=O)c2cccc(N)c2)c1 + CC(C)O + O
0.259

###

- MEASUREMENT_NOTES: xn = mol fraction of the nth substance listed, in the solute-free solvent
- DETAILS: 308.15 K; x2 = 0.8
// label = Y if solubility (g/100 g solution) is not less than 10, otherwise N

CCCCCOC(=O)Nc1nc(=O)n(C2OC(C)C(O)C2O)cc1F (stereo unspecified) + CCOC(C)=O + CCCCCCC
N
Cc1ncc(C[n+]2csc(CCO)c2C)c(N)n1.O=[N+]([O-])[O-] + O + CC(C)=O
N
OCCN(CCO)c1nc(N2CCCCC2)c2nc(N(CCO)CCO)nc(N3CCCCC3)c2n1 + CO + O
N
OCCN(CCO)c1nc(N2CCCCC2)c2nc(N(CCO)CCO)nc(N3CCCCC3)c2n1 + CCO + O
Y
S=c1[nH]ncs1 + CCO + O
Y
S=c1[nH]ncs1 + CC(C)=O + O
Y
OCCN(CCO)c1nc(N2CCCCC2)c2nc(N(CCO)CCO)nc(N3CCCCC3)c2n1 + CC(C)O + O
Y
Cc1ncc(C[n+]2csc(CCO)c2C)c(N)n1.O=[N+]([O-])[O-] + O + CO
N
Cc1ncc(C[n+]2csc(CCO)c2C)c(N)n1.O=[N+]([O-])[O-] + O + CC(C)O
N
S=c1[nH]ncs1 + CO + O
Y
S=c1[nH]ncs1 + CCCO + O
Y

###

- MEASUREMENT_NOTES: xn = mol fraction of the nth substance listed, in the solute-free solvent
- DETAILS: 283.15 K; x2 = 0.5
OUTCOME_MEASURE: solubility (g/100 g solution)

CC(N)C(=O)O (stereo unspecified) + O + CC(C)O
0.185
CC(N)C(=O)O (stereo unspecified) + O + CO
0.705
CCCCCOC(=O)Nc1nc(=O)n(C2OC(C)C(O)C2O)cc1F (stereo unspecified) + CCOC(C)=O + CCCCCCC
0.111
Cc1ncc(C[n+]2csc(CCO)c2C)c(N)n1.O=[N+]([O-])[O-] + O + CC(C)O
0.257
Cc1ncc(C[n+]2csc(CCO)c2C)c(N)n1.O=[N+]([O-])[O-] + O + CO
1.05
S=c1[nH]ncs1 + CO + O
4.96

###

- MEASUREMENT_NOTES: xn = mol fraction of the nth substance listed, in the solute-free solvent
- DETAILS: 283.15 K; x2 = 0.3
// label = true if solubility (g/100 g solution) is not less than 0.1, otherwise false

S=c1[nH]ncs1 + CCO + O
true
S=c1[nH]ncs1 + CO + O
true
Cc1ncc(C[n+]2csc(CCO)c2C)c(N)n1.O=[N+]([O-])[O-] + O + CO
true
Cc1ncc(C[n+]2csc(CCO)c2C)c(N)n1.O=[N+]([O-])[O-] + O + CC(C)O
false
CCCCCOC(=O)Nc1nc(=O)n(C2OC(C)C(O)C2O)cc1F (centres undefined) + CCOC(C)=O + CCCCCC
false
CC(N)C(=O)O (centres undefined) + O + CC(C)O
false
CC(N)C(=O)O (centres undefined) + O + CCCO
false
CC(N)C(=O)O (centres undefined) + O + CC(C)=O
false
CC(N)C(=O)O (centres undefined) + O + CO
true
CCCCCOC(=O)Nc1nc(=O)n(C2OC(C)C(O)C2O)cc1F (centres undefined) + CCOC(C)=O + CCCCCCC
false
S=c1[nH]ncs1 + CCCO + O
true
S=c1[nH]ncs1 + CC(C)=O + O
true
Cc1ncc(C[n+]2csc(CCO)c2C)c(N)n1.O=[N+]([O-])[O-] + O + CC(C)=O
false
